These measurements were taken from the supplement of paper PMC10567573.

B1: PLK2 (parent)
chain: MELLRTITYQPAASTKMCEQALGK

- Variants of: B1
- testDetails: protein stability index of a GFP-peptide fusion (GPS, HEK-293T) (PSI 1-6); higher = more stable;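 note: lentivirally expressed fusions sorted by FACS into six bins by GFP to DsRed ratio, PSI derived from sequencing read proportions per bin multiplied by bin number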
- conditionContext: c terminus: a fixed tail appended
protein stability index for assorted variants
testReadout: protein stability index

1) MELPRTITYQPAASTKMCEQALGK [L4P] :: 4.25
2) MELLRTITYQPAFSTKMCEQALGK [A13F] :: 2.33
3) MMLLRTITYQPAASTKMCEQALGK [E2M] :: 2.09
4) MELLRTITYQPAASTLMCEQALGK [K16L] :: 1.84
5) RELLRTITYQPAASTKMCEQALGK [M1R] :: 3.04
6) MELLRTITIQPAASTKMCEQALGK [Y9I] :: 2.34
7) MELLRTITYQPAAVTKMCEQALGK [S14V] :: 2.44
8) MELLRTITYQPYASTKMCEQALGK [A12Y] :: 2.21
9) MELIRTITYQPAASTKMCEQALGK [L4I] :: 2.92
10) MELLRTPTYQPAASTKMCEQALGK [I7P] :: 2.12
11) MELLRTITYQPAALTKMCEQALGK [S14L] :: 1.64
12) MELLRTITYQPAASTKMCEQAFGK [L22F] :: 2.92
13) MELLRTITYQPAASTKMCEQLLGK [A21L] :: 2.7
14) MELLRCITYQPAASTKMCEQALGK [T6C] :: 1.92
15) MELLRTATYQPAASTKMCEQALGK [I7A] :: 2.34
16) MELSRTITYQPAASTKMCEQALGK [L4S] :: 3.91
17) MELLRTITYQPGASTKMCEQALGK [A12G] :: 2.32
18) MELLRTITYQPAASTKMCEQALNK [G23N] :: 2.37
19) MELLRTITYQPMASTKMCEQALGK [A12M] :: 1.47
20) TELLRTITYQPAASTKMCEQALGK [M1T] :: 3.74
21) MELLRTITYQPAASQKMCEQALGK [T15Q] :: 2.87
22) MELLRTITYQPAASTKMCEQADGK [L22D] :: 1.87
